- method notes: in vitro
- protocol conditions: chicken, chick embryo fibroblasts
Where a name gives a salt, the structure may show the parent alone.
assay endpoint: MCC (µg/mL)
Write it as a number; the unit µg/mL goes unstated.

These solved cases illustrate the format of a correct answer.
| compound | MCC [µg/mL] |
| --- | --- |
| NC12CC3CC(CC(C3)C1)C2 [adamantylamine hydrochloride, reference compound] | 250 |
| O=C(OC1CCCCC1)C12CCCC(C1)C1CCC2C1 (stereo not shown) | 200 |

I have this compound here, CCCCCCCCOC(=O)C12CCCC(C1)C1CCC2C1 (stereo not shown) , and I need its recorded MCC.
1000

Item COC(=O)C12CCCC(C1)C1CCC2C1 (stereo not shown) has what recorded MCC?
200

Please give the measured MCC for this compound: O=C(OC1CCCC1)C12CCCC(C1)C1CCC2C1 (stereo not shown)
200

State the recorded MCC for this entry: CCCCOC(=O)C12CCCC(C1)C1CCC2C1 (stereo not shown)
200

MCC lookup needed for O=C(OC1CC2CC1C1CCCC21)C12CCCC(C1)C1CCC2C1 (stereo not shown) , thanks.
1000
